- procedure_summary: Half life in rat liver microsomes at 1 uM
- Type: ADME, Microsome
property: half-life at 1 µM (min)

- record_smiles: "Cc1ccc(NCc2ccnn2-c2nnc(N3CCC(C(=O)N[C@H]4CCCC[C@H]4C)CC3)s2)nc1"
  recorded_number: 1.3

###

- target_of_assay: Voltage-gated inwardly rectifying potassium channel KCNH2 (Homo sapiens, UniProt Q12809)
- Sequence (Q12809 whole entry): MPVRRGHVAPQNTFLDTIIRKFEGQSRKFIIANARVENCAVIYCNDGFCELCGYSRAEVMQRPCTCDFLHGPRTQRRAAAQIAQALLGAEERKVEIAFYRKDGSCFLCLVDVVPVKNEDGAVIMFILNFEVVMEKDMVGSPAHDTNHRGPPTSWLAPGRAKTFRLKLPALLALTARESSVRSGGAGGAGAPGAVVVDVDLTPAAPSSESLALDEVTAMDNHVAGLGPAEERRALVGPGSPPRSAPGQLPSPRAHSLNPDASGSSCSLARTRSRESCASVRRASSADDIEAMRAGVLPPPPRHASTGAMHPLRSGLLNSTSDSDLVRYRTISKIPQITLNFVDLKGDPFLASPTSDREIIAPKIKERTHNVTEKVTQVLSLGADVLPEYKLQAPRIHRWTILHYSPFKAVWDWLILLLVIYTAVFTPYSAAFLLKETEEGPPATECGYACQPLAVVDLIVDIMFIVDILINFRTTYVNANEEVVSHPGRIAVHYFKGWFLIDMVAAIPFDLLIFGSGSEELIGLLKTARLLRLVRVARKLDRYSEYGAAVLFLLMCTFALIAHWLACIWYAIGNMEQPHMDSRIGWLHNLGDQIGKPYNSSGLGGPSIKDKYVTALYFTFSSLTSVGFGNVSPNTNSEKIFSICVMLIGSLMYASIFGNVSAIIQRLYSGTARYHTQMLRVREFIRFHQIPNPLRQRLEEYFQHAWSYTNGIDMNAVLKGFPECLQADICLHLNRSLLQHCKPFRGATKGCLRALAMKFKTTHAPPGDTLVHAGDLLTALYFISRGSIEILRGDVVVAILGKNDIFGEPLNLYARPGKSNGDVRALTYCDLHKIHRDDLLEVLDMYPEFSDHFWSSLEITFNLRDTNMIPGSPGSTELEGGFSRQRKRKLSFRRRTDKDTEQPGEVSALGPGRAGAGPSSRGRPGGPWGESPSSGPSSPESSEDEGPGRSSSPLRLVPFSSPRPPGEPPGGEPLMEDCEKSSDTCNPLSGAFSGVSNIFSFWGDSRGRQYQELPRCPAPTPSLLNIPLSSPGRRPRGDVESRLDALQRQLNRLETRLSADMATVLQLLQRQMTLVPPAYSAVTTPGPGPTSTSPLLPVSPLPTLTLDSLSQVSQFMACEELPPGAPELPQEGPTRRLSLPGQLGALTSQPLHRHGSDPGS
- procedure_summary: Inhibition of human ERG by patch clamp method
pIC50: −log10 of the molar value.
property: pIC50

- record_smiles: "Cc1ccc(NCc2ccnn2-c2nnc(N3CCC(C(=O)N[C@H]4CCCC[C@H]4C)CC3)s2)nc1"
  property: "pIC50"
  result: "< 4.52"

###

- target_of_assay: Protein smoothened (Mus musculus, UniProt P56726)
- Sequence (P56726 whole entry): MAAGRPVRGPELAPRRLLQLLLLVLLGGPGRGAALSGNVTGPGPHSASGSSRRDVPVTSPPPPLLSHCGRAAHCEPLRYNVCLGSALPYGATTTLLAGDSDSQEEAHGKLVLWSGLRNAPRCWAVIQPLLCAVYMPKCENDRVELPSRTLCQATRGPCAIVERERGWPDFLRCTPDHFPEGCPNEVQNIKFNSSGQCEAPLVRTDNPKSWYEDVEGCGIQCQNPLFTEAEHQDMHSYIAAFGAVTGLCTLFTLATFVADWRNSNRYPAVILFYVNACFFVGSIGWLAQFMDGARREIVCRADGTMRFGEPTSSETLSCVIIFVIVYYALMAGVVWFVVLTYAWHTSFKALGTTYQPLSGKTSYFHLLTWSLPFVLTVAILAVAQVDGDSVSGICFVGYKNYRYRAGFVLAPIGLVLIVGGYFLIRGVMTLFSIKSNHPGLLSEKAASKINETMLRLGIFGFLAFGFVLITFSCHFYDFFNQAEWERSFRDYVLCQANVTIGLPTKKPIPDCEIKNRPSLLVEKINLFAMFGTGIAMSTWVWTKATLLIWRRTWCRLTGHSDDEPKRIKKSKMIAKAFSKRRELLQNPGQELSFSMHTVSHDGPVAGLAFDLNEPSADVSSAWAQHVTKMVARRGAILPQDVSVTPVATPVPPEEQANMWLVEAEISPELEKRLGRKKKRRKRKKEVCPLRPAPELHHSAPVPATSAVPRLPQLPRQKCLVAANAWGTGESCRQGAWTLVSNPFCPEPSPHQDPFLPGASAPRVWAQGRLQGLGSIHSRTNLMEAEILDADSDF
- procedure_summary: Antagonist activity at Smo receptor in mouse NIH/3T3 cells harboring GRE-Luc assessed as inhibition of SAG-induced Hh signaling pathway preincubated with cells followed by SAG addition measured after 48 hrs by luciferase reporter gene assay
property: IC50 (nM)

- compound: "CC1CCCCC1NC(=O)C1CCN(c2nnc(-n3nccc3CO)s2)CC1 (centres undefined)"
  property: "IC50"
  output_unit: "nM"
  inequality_operator: ">"
  recorded_number: 10000
- compound: "Cc1cnc(NCc2ccnn2-c2nnc(N3CCC(C(=O)NC4CCCCC4C)CC3)s2)nc1 (centres undefined)"
  property: "IC50"
  output_unit: "nM"
  inequality_operator: "="
  recorded_number: 180
- compound: "Cc1cnc(NCc2ccnn2-c2nnc(N3CCC(C(=O)NC4CCCCC4C)CC3)s2)cn1 (centres undefined)"
  property: "IC50"
  output_unit: "nM"
  inequality_operator: "="
  recorded_number: 410
- compound: "CC1CCCCC1NC(=O)C1CCN(c2nnc(-c3ccnn3C)s2)CC1 (centres undefined)"
  property: "IC50"
  output_unit: "nM"
  inequality_operator: ">"
  recorded_number: 10000
- compound: "Cc1ccc(NCc2ccnn2-c2nnc(N3CCC(C(=O)Nc4ncccc4C)CC3)s2)nc1"
  property: "IC50"
  output_unit: "nM"
  inequality_operator: "="
  recorded_number: 280
- compound: "CC1CCCCC1NC(=O)C1CCN(c2nnc(-n3nccc3CNc3ccccn3)s2)CC1 (centres undefined)"
  property: "IC50"
  output_unit: "nM"
  inequality_operator: "="
  recorded_number: 18
- compound: "Cc1ccc(NCc2c(-c3nnc(N4CCC(C(=O)NC5CCCCC5C)CC4)s3)cnn2C)nc1 (centres undefined)"
  property: "IC50"
  output_unit: "nM"
  inequality_operator: "="
  recorded_number: 1800
- compound: "Cc1ccc(NCc2ccnn2-c2nnc(N3CCC(C(=O)N[C@@H]4CCCC[C@@H]4C)CC3)s2)nc1"
  property: "IC50"
  output_unit: "nM"
  inequality_operator: "="
  recorded_number: 8.4
- compound: "Cc1ccc(NCc2ccnn2-c2nnc(N3CCC(C(=O)Nc4cccnc4C)CC3)s2)nc1"
  property: "IC50"
  output_unit: "nM"
  inequality_operator: "="
  recorded_number: 460

###

- target_of_assay: CYP2D6 (Homo sapiens)
- Sequence (P10635 whole entry): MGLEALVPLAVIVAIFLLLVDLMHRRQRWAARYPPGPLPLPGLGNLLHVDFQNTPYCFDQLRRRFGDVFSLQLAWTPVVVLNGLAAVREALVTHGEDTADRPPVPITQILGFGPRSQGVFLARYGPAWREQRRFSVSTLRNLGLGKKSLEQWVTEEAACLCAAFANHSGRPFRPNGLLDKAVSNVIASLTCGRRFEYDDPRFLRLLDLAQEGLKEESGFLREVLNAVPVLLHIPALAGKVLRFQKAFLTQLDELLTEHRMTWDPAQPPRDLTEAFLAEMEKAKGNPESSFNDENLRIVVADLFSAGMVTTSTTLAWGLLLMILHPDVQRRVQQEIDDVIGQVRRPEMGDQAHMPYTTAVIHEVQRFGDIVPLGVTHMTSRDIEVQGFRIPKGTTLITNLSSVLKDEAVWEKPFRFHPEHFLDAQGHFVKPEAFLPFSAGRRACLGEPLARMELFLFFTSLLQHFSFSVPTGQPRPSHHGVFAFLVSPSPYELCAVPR
- procedure_summary: Inhibition of CYP2D6 (unknown origin) at 10 uM relative to control
- Assay type: ADME

- record_smiles: "Cc1ccc(NCc2ccnn2-c2nnc(N3CCC(C(=O)N[C@H]4CCCC[C@H]4C)CC3)s2)nc1"
  output_unit: "%"
  inhibition at 10 µM: 59
